Values were extracted from PubChem BioAssay (NCI).

Tested on: K-562 leukemia
Assay: NCI-60 one-dose screen, 48 h (100 = growth as untreated, 0 = no growth, -100 = all killed)
Settings: 10 µM unless noted
The panel holds about 83,000 compounds, 20% with a hit somewhere; the sample as a whole holds those more often.
// false (0) strictly below 20% in growth; true (1) otherwise

# molecule, assigned_label
data = [
    ("Cc1cnc2nc(NN)[nH]n12", "true (1)"),
]

Now, please, on to the next molecule.
Query: Entry "CCOC(=O)Nc1cccc(-n2cnc3cc(-c4ccc(O)cc4)ccc32)c1" : is its growth no less than 20%?
Reply: false (0)

* * *

Tested on: HCT-116 colon
Test: NCI-60 one-dose screen, 48 h
Details: 10 µM unless noted
The panel holds about 83,000 compounds, 20% with a hit somewhere; the sample as a whole holds those more often. Active and inactive are the calls of the source. Rule for the calls: active = growth percent below 10; inactive = the rest.
Output constraint: value belongs to active, inactive

# compound, assigned_label
records = [
    ("CS(=O)c1nccc(-c2c(-c3ccc(F)c(OCc4ccc(F)cc4)c3)nc3sccn23)n1 (stereo not drawn)", "inactive"),
    ("NS(=O)(=O)c1ccc(Nc2nc(N/N=C/c3ccc(C(F)(F)F)cc3)nc(Nc3ccccc3)n2)cc1", "active"),
    ("CCN(CC)c1ccc2cc(C(=O)NCCOCCOCCOCCn3cc(CCC(=O)Nc4ccc(C(=O)c5ccc(NC(=O)OC(C)(C)C)cc5)cc4)nn3)c(=O)oc2c1", "inactive"),
    ("CCN(CC)CCN1C(=O)c2c(c3c4cccnc4[nH]c3c3ccc4ccccc4c23)C1=O", "inactive"),
]

Query: Hello, I am checking results. What call was entered for "O=C1CC2(CCOCC2)Oc2ncccc21" ?
Reply: inactive

Query: Hello, I am checking results. What call was entered for "COc1ccc(-c2nc(SCC(C)C)nc(N/N=C\c3cccc([N+](=O)[O-])c3)c2C#N)cc1" ?
Reply: inactive

Query: Hello, I am checking results. What call was entered for "N#Cc1c(-c2cccs2)cc(-c2cnccn2)nc1SCC(=O)NNC(=S)Nc1ccc(F)cc1" ?
Reply: inactive

* * *

The entries below are paired with their reported growth.
Test system: OVCAR-5 ovarian
Assay: NCI-60 one-dose screen, 48 h (100 = growth as untreated, 0 = no growth, -100 = all killed)
Settings: 10 µM unless noted
Compounds without any hit were thinned out: in the full panel of roughly 83,000, 20% have a hit.
Please reply with the bare figure in % and do not write the unit itself.

# compound, growth (%)
records = [
    ("CCN(CC)CCN1C(=O)c2c(c3c4cc(Br)ccc4[nH]c3c3ccc4ccccc4c23)C1=O", -95.2),
    ("Cc1cc(-c2ccc3nc(N)sc3c2)nc2ccc3[nH]ncc3c12", 57.6),
    ("O=C(/C=C/Nc1ccc(S(=O)(=O)O)cc1)c1ccc(F)cc1", 103),
    ("O=C(/C=C/c1cn(-c2ccccc2)nc1-c1ccc(Cl)cc1)c1cc2ccccc2oc1=O", 98),
    ("CS(=O)c1nccc(-c2c(-c3ccc(F)c(OCc4ccc(F)cc4)c3)nc3sccn23)n1 (centres undefined)", 100),
]

Query: Value lookup for growth; key = "Clc1ccc(-c2nc3ccc(/C(=N\N=C\c4ccccc4)c4ccccc4)cc3[nH]2)cc1"
Reply: 85.6

Query: Value lookup for growth; key = "Cc1nn(-c2ccc(Cl)cc2)c(C)c1N=Nc1ccc2oc(=O)ccc2c1"
Reply: 104

Query: Value lookup for growth; key = "CC1(COc2ccc3ncc(C#Cc4cncc(C(=O)Nc5cc(C(C)(C)C)on5)c4)n3n2)COC1"
Reply: 55.9

Query: Value lookup for growth; key = "CCNCCCn1c2c(c3cc(OC)c(OC)cc3c1=O)C(=O)c1cc(OC)cnc1-2"
Reply: 46.2

* * *

System: BT-549 breast
Assay: NCI-60 one-dose screen, 48 h (100 = growth as untreated, 0 = no growth, -100 = all killed)
Conditions: 10 µM unless noted
This is part of a sample that, as a whole, favours compounds with a hit. Of some 83,000 tested, about 20% had one in any assay.
reported_property: growth (%)
Please reply with the bare figure in % and do not write the unit itself.

# molecular_string, reported_property, value_units, obs_value
rows = [
    ("Fc1ccc(-c2cc3nc(C(Cl)Cl)nc(-c4cccs4)n3n2)cc1", "growth", "%", 92),
    ("O=C(CSc1nnc(-c2ccc(Cl)cc2)n1-c1ccccc1)Nc1ccc(F)cc1", "growth", "%", 93.2),
    ("O=C(Nc1ccc(-c2nc(-c3cccc(O)c3)c(-c3ccnc(Br)c3)[nH]2)cc1)c1ccccc1", "growth", "%", 40.6),
    ("CN1CCN(Cc2ccc(NC(=O)c3cncc(C#Cc4[nH]nc5ncncc45)c3)cc2C(F)(F)F)CC1", "growth", "%", 118),
    ("Cc1csc(Nc2cccc(Nc3nc(C)cs3)c2)n1", "growth", "%", 73.7),
    ("Cc1ccc(-c2cc(-c3cccc4ccccc34)n3c(n2)nc2ccccc23)cc1", "growth", "%", 69.1),
    ("COc1cnc2c(c1)C(=O)c1c-2n(CCCNCC2CC2)c(=O)c2cc(F)ccc12", "growth", "%", -0.964),
    ("O=C1[C@H]2Cc3c([nH]c4ccccc34)[C@@H](c3c(Cl)cccc3Cl)N2C(=O)CN1C1CCN(Cc2ccccc2)CC1", "growth", "%", 106),
    ("NC(=O)C(=Cc1ccc(Cl)cc1)C(N)=O", "growth", "%", 58.1),
]

// below: growth requested for another compound
Query: Value lookup for growth; key = "Fc1ccccc1/C=C(/C1=NCCN1)n1cnc2ccccc21"
Reply: 102

* * *

System: NCI-H23 lung
Assay: NCI-60 one-dose screen, 48 h (100 = growth as untreated, 0 = no growth, -100 = all killed)
Details: 10 µM unless noted
About 83,000 compounds went through this panel and 20% of them were active in at least one assay; those are over-represented in the sample as a whole.
The entries below are paired with their reported growth.
Please reply with the bare figure in % and do not write the unit itself.

# compound, growth (%)
rows = [
    ("COc1ccc2c(C3=C(c4cn(C)c5ccccc45)C(=O)NC3=O)coc2c1", 34.8),
    ("CC[C@H](C)[C@H]1NC(=O)[C@@H]([C@H](O)C(C)C)NC(=O)[C@@H](C)N(C)C(=O)[C@H](C)N(C)C(=O)[C@H](CC(C)C)NC(=O)[C@H](CC(C)C)N(C)C(=O)[C@H](C)N(C)C1=O", -2.85),
    ("CCOC(=O)/C=c1\\sc2n(c1=O)C1C(NN=2)N(CC)C(=O)N1CC (centres undefined)", 79.6),
]

Query: Value lookup for growth; key = "CCCCCCCCNC(=O)c1ccc(Cn2c(CCCC)nc3c(N)nc4ccccc4c32)cc1"
Reply: 38.8

* * *

Tested on: DU-145 prostate
Assay: NCI-60 one-dose screen, 48 h (100 = growth as untreated, 0 = no growth, -100 = all killed)
Conditions: 10 µM unless noted
Compounds without any hit were thinned out: in the full panel of roughly 83,000, 20% have a hit.
reported_property: growth (%)
Please reply with the bare figure in % and do not write the unit itself.

# compound, growth, %
measured = [
    ("Cc1ccc(-c2cc3nc(C(Cl)Cl)nc(-c4ccccc4)n3n2)cc1", 2.08),
    ("COc1ccc(-c2ccc3c4c(cccc24)C(=O)N(N2C(=O)c4cccc5cccc(c45)C2=O)C3=O)cc1", 112),
    ("O=c1cc(-c2ccccc2)nc2sc(-c3c[nH]c4ccc(Br)cc34)nn12", 103),
    ("CCCC(=O)NC(c1cccnc1)c1ccc2c(C)ccnc2c1O (centres undefined)", 30.1),
    ("O=C(NCCCCCCNC(=O)c1c2c(nc3ccccc13)-c1cccnc1SC2)c1c2c(nc3ccccc13)-c1cccnc1SC2", 104),
]

Query: Value lookup for growth; key = "COc1ccc(/C=N/Nc2nc(N/N=C/c3ccc(OC)cc3O)nc(N3CCOCC3)n2)c(O)c1"
Reply: 57.8

Query: Value lookup for growth; key = "O=C(CCCCCCN1CC(=O)N2[C@@H](c3cccc(Br)c3)c3[nH]c4ccccc4c3C[C@H]2C1=O)NO"
Reply: 24.2

Query: Value lookup for growth; key = "C/C(Cc1ccc(Cl)cc1)=C(/c1ccccc1)c1ccc(OCCN)cc1"
Reply: 106

Query: Value lookup for growth; key = "O=C(CN1C(=O)CSC1=O)Nc1ccc(C(=O)/C=C/c2cc3ccccc3nc2Cl)cc1"
Reply: 90.3

* * *

Tested on: TK-10 renal
Test: NCI-60 one-dose screen, 48 h (100 = growth as untreated, 0 = no growth, -100 = all killed)
Settings: 10 µM unless noted
This is part of a sample that, as a whole, favours compounds with a hit. Of some 83,000 tested, about 20% had one in any assay.
reported_property: growth (%)
Please reply with the bare figure in % and do not write the unit itself.

Before answering, review these 5 worked examples.
# molecular_string, obs_value
records = [
    ("COCCOc1ccc(-c2csc(NC(=O)CN3CCN(CCO)CC3)n2)cc1NS(=O)(=O)c1cccc2c(N(C)C)cccc12", 107),
    ("COc1ccc(C(=O)n2cc(C=O)c3ccccc32)cc1", 123),
    ("Nc1nc(-c2cccc([N+](=O)[O-])c2)c(N=Nc2cccc(Cl)c2)s1", 71.7),
    ("NS(=O)(=O)c1ccc(-n2cc(CC=O)nn2)cc1", 98.5),
    ("O=C(NCCNc1cc(-c2cn(-c3ccccc3)nc2-c2cccc(O)c2)ccn1)Nc1ccc(Cl)c(C(F)(F)F)c1", 98.1),
]

// below: growth requested for another compound
Query: Value lookup for growth; key = "COc1cc2oc(-c3cccc(NC(=O)c4cc(NC(=O)[C@H](C)NC(=O)OC(C)(C)C)ccc4C)c3)cc(=O)c2c(OC)c1OC"
Reply: 89.1
